Test system: MCF7
Experiment: Cytotoxicity against human MCF7 cells after 96 hrs by SRB assay
Format: functional, cell-based
Details: MCF7, 96 h
EC50 values by entry
READOUT_KIND: EC50 (nM)

SMILES_STR: C=C(C)[C@@H]1CC[C@]2(C(=O)OC)CC[C@]3(C)[C@H](CC[C@@H]4[C@@]5(C)CC[C@H](OC(=O)c6ccccc6-c6c7ccc(=[N+](CC)CC)cc-7oc7cc(N(CC)CC)ccc67)C(C)(C)[C@@H]5CC[C@]43C)[C@H]12
VALUE_MEASURED: 810
//
SMILES_STR: CCN(CC)c1ccc2c(-c3ccccc3C(=O)O[C@H]3CC[C@]4(C)[C@H]5CC=C6[C@@H]7[C@@H](C)[C@H](C)CC[C@]7(C(=O)OCc7ccccc7)CC[C@@]6(C)[C@]5(C)CC[C@H]4C3(C)C)c3ccc(=[N+](CC)CC)cc-3oc2c1
VALUE_MEASURED: 13800
//
SMILES_STR: CCN(CC)c1ccc2c(-c3ccccc3C(=O)O[C@H]3CC[C@]4(C)[C@H]5CC=C6[C@@H]7[C@@H](C)[C@H](C)CC[C@]7(C(=O)NCc7ccccc7)CC[C@@]6(C)[C@]5(C)CC[C@H]4C3(C)C)c3ccc(=[N+](CC)CC)cc-3oc2c1
VALUE_MEASURED: 300
//
SMILES_STR: CCN(CC)c1ccc2c(-c3ccccc3C(=O)O[C@H]3CC[C@]4(C)[C@H]5CC=C6[C@@H]7CC(C)(C)CC[C@]7(C(=O)OC)CC[C@@]6(C)[C@]5(C)CC[C@H]4C3(C)C)c3ccc(=[N+](CC)CC)cc-3oc2c1
VALUE_MEASURED: 2310
//
SMILES_STR: C=C(C)[C@@H]1CC[C@]2(C(=O)OCc3ccccc3)CC[C@]3(C)[C@H](CC[C@@H]4[C@@]5(C)CC[C@H](OC(=O)c6ccccc6-c6c7ccc(=[N+](CC)CC)cc-7oc7cc(N(CC)CC)ccc67)C(C)(C)[C@@H]5CC[C@]43C)[C@H]12
VALUE_MEASURED: 5050
//
SMILES_STR: CCN(CC)c1ccc2c(-c3ccccc3C(=O)O[C@H]3CC[C@]4(C)[C@H]5C(=O)C=C6[C@@H]7C[C@@](C)(C(=O)OC)CC[C@]7(C)CC[C@@]6(C)[C@]5(C)CC[C@H]4C3(C)C)c3ccc(=[N+](CC)CC)cc-3oc2c1
VALUE_MEASURED: 180
//
SMILES_STR: C=C(C)[C@@H]1CC[C@]2(C(=O)NCc3ccccc3)CC[C@]3(C)[C@H](CC[C@@H]4[C@@]5(C)CC[C@H](OC(=O)c6ccccc6-c6c7ccc(=[N+](CC)CC)cc-7oc7cc(N(CC)CC)ccc67)C(C)(C)[C@@H]5CC[C@]43C)[C@H]12
VALUE_MEASURED: 470
//
SMILES_STR: CCN(CC)c1ccc2c(-c3ccccc3C(=O)O[C@H]3CC[C@]4(C)[C@H]5C(=O)C=C6[C@@H]7C[C@@](C)(C(=O)NCc8ccccc8)CC[C@]7(C)CC[C@@]6(C)[C@]5(C)CC[C@H]4C3(C)C)c3ccc(=[N+](CC)CC)cc-3oc2c1.[Cl-]
VALUE_MEASURED: 40
//
SMILES_STR: CCN(CC)c1ccc2c(-c3ccccc3C(=O)O[C@H]3CC[C@]4(C)[C@H]5CC=C6[C@@H]7[C@@H](C)[C@H](C)CC[C@]7(C(=O)OC)CC[C@@]6(C)[C@]5(C)CC[C@H]4C3(C)C)c3ccc(=[N+](CC)CC)cc-3oc2c1
VALUE_MEASURED: 1830
//
SMILES_STR: CCN(CC)c1ccc2c(-c3ccccc3C(=O)O[C@H]3CC[C@]4(C)[C@H]5CC=C6[C@@H]7CC(C)(C)CC[C@]7(C(=O)OCc7ccccc7)CC[C@@]6(C)[C@]5(C)CC[C@H]4C3(C)C)c3ccc(=[N+](CC)CC)cc-3oc2c1
VALUE_MEASURED: 9400
